Entries annotated with measured melting point

Please review the following examples before continuing.
Output melting point of O=C(Nc1cc(F)cc(F)c1)Nc1ccccc1CCO 188 to 189 °C

Please give measured melting point of the following entry: Cc1ccc(Oc2ccc(NC(=O)Nc3ccccc3CCO)cc2)cc1 164 to 168 °C (dec.)

Indicate the recorded melting point value for this compound: O=C(Nc1ccc2[nH]ncc2c1)Nc1ccccc1CCO 234 to 236 °C

For the compound N#Cc1ccc(-c2ccc(NC(=O)Nc3ccccc3CCO)cc2)cc1 , give its reported melting point. 213 to 215 °C

Tell me measured melting point for O=C(Nc1cccc(-c2ccccc2Cl)c1)Nc1cc(C(F)(F)F)ccc1CCO please. 185 to 187 °C

Input COc1ccc(NC(=O)Nc2ccccc2CCO)cc1OC , output reported melting point. 186 to 187 °C

Shifting focus to the compound that follows.
Quick one: give measured melting point for O=C(Nc1ccccc1CCO)Nc1ccccc1Cc1ccccc1 162 to 164 °C
